All figures here come from a melting point compilation (Tetko et al.; mined from patent text by program, amines drawn as free bases though some values may be those of a salt).

Entries annotated with measured melting point

Below are worked cases with known answers.
Clc1ccc(OCc2ccccc2)c(Br)c1 | 49 to 50.5 °C
O=Cc1coc2ccc(OCc3ccccc3)cc2c1=O | 163 to 166 °C
CCCC(C)NC1=NS(=O)(=O)c2cc(Cl)c(Cl)cc2N1 (stereo unspecified) | 217 to 220 °C

Q: What does the data say about its melting point? Entry: CCCC(c1ccc(C)cc1)n1cncc1C(=O)OC (stereo unspecified)
A: 141 to 143 °C

Q: What does the data say about its melting point? Entry: "CCCc1cc(C(=O)NC(C)(C)C)no1"
A: 34 to 37 °C

Q: What does the data say about its melting point? Entry: "S=C(NN=Cc1cccc(-c2ccc(Cl)cc2Cl)n1)NN1CCCC1"
A: 155 to 156 °C
